# TEST_PROTOCOL: qHTS assay for small molecule agonists of the p53 signaling pathway - cell viability (AID 651633); further: nearly all actives have a fitted effect of over 30% in size
# CONDITION_CONTEXT: p53RE-bla HCT-116 viability, ATP luminescence, 16 h; series mostly up to 83.3 µM
Results filed as inconclusive are left out. Activity calls are given as the source filed them. The call rests on the fitted dose curve.
Outcome codes: yes (1) (active), no (0) (inactive)

COMPOUND | ASSIGNED_CLASS
OCCN1CCN(CCCN2c3ccccc3Sc3ccc(Cl)cc32)CC1 | no (0)
Nc1ncnc2c1ncn2[C@H]1CC[C@@H](CO)O1 | no (0)
CN(C)CCC=C1c2ccccc2C=Cc2ccccc21 | no (0)
CC(CO)CO | no (0)
O=c1[nH]ncc2ccccc12 | no (0)
C=CCc1ccccc1OCC(O)CNC(C)C (stereo unspecified) | no (0)
c1cc(N(CC2CO2)CC2CO2)ccc1Cc1ccc(N(CC2CO2)CC2CO2)cc1 (stereo unspecified) | no (0)
CCOC(=O)/C=C/C(=O)OCC | no (0)
CCCCCCCC/C=C\CCCCCCCCCCCC(=O)O | no (0)
Cc1ccc(CO)cc1 | no (0)
COc1ccccc1Oc1c(NS(=O)(=O)c2ccc(C(C)(C)C)cc2)nc(-c2ncccn2)nc1OCCO | no (0)
CCOc1ccc(Cc2nccc3cc(OCC)c(OCC)cc23)cc1OCC | no (0)
O=C1c2ccccc2C(=O)N1CCc1noc(-c2ccc(CN3CCCCCC3)s2)n1 | no (0)
CC(C)=CCC1C(=O)N(c2ccccc2)N(c2ccccc2)C1=O | yes (1)
C=Cc1ccc(S(=O)(=O)O)cc1 | no (0)
O=C(O)c1cccc(-c2noc(-c3ccccc3F)n2)c1 | yes (1)
Nc1nnc(-c2ccc([N+](=O)[O-])o2)o1 | no (0)
O=C=Nc1cccc(C(F)(F)F)c1 | no (0)
CCCCCCCC/C=C\CCCCCCCCO | no (0)
Clc1ccc(Nc2nnc(Cc3ccncc3)c3ccccc23)cc1 | no (0)
COc1ccccc1N1CCN(CC(O)COc2cccc3ccccc23)CC1 (stereo unspecified) | no (0)

----------
# TEST_PROTOCOL: qHTS assay for identifying genotoxic compounds that show differential cytotoxicity against isogenic chicken DT40 cell lines with known DNA damage response pathways - Rad54/Ku70 mutant cell line (AID 743015); further: nearly all actives have a fitted effect of over 60% in size; further: potency means the concentration at half of the fitted maximal effect
# CONDITION_CONTEXT: DT40 Rad54/Ku70 mutant viability, CellTiter-Glo, 40 h; series mostly up to 66.8 µM
Inconclusive results are not listed. Activity calls are given as the source filed them. The call rests on the fitted dose curve; in most records, active means well fitted cell-killing curve with a large enough effect in the repeat runs; inconclusive means weak or mixed curves; inactive means no such curve, though single readings can be large or run the other way.

STRUCTURE_STRING | Potency
Nc1ncnc2c1ncn2[C@H]1CC[C@@H](CO)O1 | 23.7 µM (active)
O=C(O)CCc1nc(-c2ccccc2)c(-c2ccccc2)o1 | inactive
Cc1ccc(OC(=O)c2ccccc2O)cc1 | inactive
C=C/C(C)=C/C/C=C(\C)CCC=C(C)C | 48.6 µM (active)
CCOC(=O)[C@H](CCc1ccccc1)N[C@@H](C)C(=O)N(CC(=O)O)C1Cc2ccccc2C1 | 23.7 µM (active)
CC(C)(C)C(=O)C(=O)O | inactive
O=c1[nH]c2ccc(Cl)cc2o1 | inactive

----------
# TEST_PROTOCOL: qHTS assay to identify small molecule agonists of the RXR signaling pathway - cell viability counter screen (AID 1159529);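 further: HEK 293T cells carrying an RXR-alpha UAS beta-lactamase reporter; nearly all actives have a fitted effect of over 50% in size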
# CONDITION_CONTEXT: RXR-alpha-bla HEK293T viability, CellTiter-Glo, 16 h; series mostly up to 76.8 µM
Inconclusive results are not listed. Calls of active or inactive are those of the source. Calls follow the shape of the dose curve; as a rule, active = well fitted cell-killing curve with a large enough effect in the repeat runs; inconclusive = weak or mixed curves, or effect the other way; inactive = no such curve, though single readings can be large or run the other way.
MEASURED_PARAMETER: outcome

COMPOUND | RESULT
CCC(=O)OC | inactive
Cc1ccccc1N=C(N)Nc1ccccc1C | inactive
CC(=O)Nc1ccc(C)cc1C | inactive
CCC=CC#N | inactive
O=c1cc(-c2ccccc2)oc2cc(O)cc(O)c12 | inactive
CCC(=O)C1CC(C(C)C)CC=C1C (stereo not drawn) | inactive
CC[C@]1(O)C[C@H]2CN(CCc3c([nH]c4ccccc34)[C@@](C(=O)OC)(c3cc4c(cc3OC)N(C=O)[C@H]3[C@@](O)(C(=O)OC)[C@H](OC(C)=O)[C@]5(CC)C=CCN6CC[C@]43[C@@H]65)C2)C1 | inactive
NC(=O)c1ccncc1 | inactive
CCC1(CO)COCOC1 | inactive
CC(C)Nc1cccnc1N1CCN(C(=O)c2cc3cc(NS(C)(=O)=O)ccc3[nH]2)CC1 | inactive
C=COCC(C)C | inactive
CCCCC(CC)CN (stereo not drawn) | inactive
Cc1cc(O)c(C)c(C)c1O | inactive
